System: SARS-CoV-2
experimental details: Cell monolayer protection assay (crystal violet staining of virus-induced cell death)
Format: cell-based, SARS-CoV-2 stock strain NL/2020
Parameters: unit: uM
condition set: maximum compound concentration protecting Vero-E6 cell monolayer from virus induced cell death, 72 hours, dilutions from 50µM to 780nM tested
Provide the recorded PC Max for the entries that follow.
Give bare numbers.

Use the examples below as a reference point.
entry_smiles=O=C(O)c1cc(-c2ccccc2)nc2ccc(-c3ccc(Cl)c(Cl)c3)cc12 test_value=50
entry_smiles=CCCCc1ccc(-c2ccc3c(C(=O)O)cc(-c4ccc(OC)cc4)nc3c2)cc1 test_value=50
entry_smiles=CCCCc1ccc(-c2ccc(-c3cc(C(=O)O)c4ccccc4n3)cc2)cc1 test_value=50

Report PC Max for every entry below.
1. CCCCc1ccc(-c2ccc3nc(-c4ccc(OC)cc4)cc(C(=O)O)c3c2)cc1
2. O=C(O)c1cc(-c2ccc(-c3cccc(OC(F)(F)F)c3)cc2)nc2ccccc12
3. COc1ccc(-c2cc(C(=O)O)c3cccc(-c4ccc(Cl)c(Cl)c4)c3n2)cc1
4. CCc1ccc(-c2ccc(-c3cc(C(=O)O)c4ccccc4n3)cc2)cc1
5. CCc1ccc(-c2cccc3c(C(=O)O)cc(-c4ccc(OC)cc4)nc23)cc1

1: 50; 2: 50; 3: 50; 4: 50; 5: 50

* * *

experimental details: in vitro
condition set: human, huh7-lunet#3 cells
measurement kind: viability at 72 h, 10 µM
Quote the value and follow it with the unit of measurement.

If you can, please state the reported viability at 72 h, 10 µM value of COc1ccc(-c2cc(C(=O)O)c3cc(-c4ccc(C(C)(C)C)cc4)ccc3n2)cc1 .
107%
